tested on: Micrococcus flavus ATCC 10240; test: MIC (minimum inhibitory concentration); type: cell-based; details: Micrococcus flavus, ATCC10240
Recorded MIC values for a group of compounds are listed next.

Data request, read-out MIC, for CCC1OC(=O)CC(OC(=O)Cc2ccccc2)C(C)C(OC2OC(C)C(O)C(N(C)C)C2O)C(C)CC(C)C(=O)C=CC(C)=CC1COC1OC(C)CC(OC)C1OC (stereo not shown) ≤ 0.05 µg/mL

###

Recorded MIC values for a group of compounds are listed next.
system: Serratia marcescens; assay: MIC (minimum inhibitory concentration); format: cell-based

CC[C@H]1OC(=O)[C@H](C)[C@@H](O[C@H]2C[C@@](C)(OC)[C@@H](O)[C@H](C)O2)[C@H](C)[C@@H](O[C@@H]2O[C@H](C)C[C@H](N(C)C)[C@H]2O)[C@](C)(O)C[C@@H](C)C(=O)[C@H](C)[C@@H](O)[C@]1(C)O [Erythromycin, reference compound] = 100 mg/L

Data request, read-out MIC, for CC[C@H]1OC(=O)C[C@@H](O)[C@H](C)[C@@H](O[C@@H]2O[C@H](C)[C@@H](O[C@H]3C[C@@](C)(O)[C@@H](O)[C@H](C)O3)[C@H](N(C)C)[C@H]2O)[C@@H](CC=O)C[C@@H](C)C(=O)/C=C/C(C)=C/[C@@H]1CO[C@@H]1O[C@H](C)[C@@H](O)[C@@H](OC)[C@H]1OC [Tylosin, reference compound] > 100 mg/L

Data request, read-out MIC, for CCC1OC(=O)CC(OC(=O)Cc2ccccc2)C(C)C(OC2OC(C)C(O)C(N(C)C)C2O)C(CC=O)CC(C)C(=O)C=CC(C)=CC1COC1OC(C)CC(OC)C1OC (stereo not shown) [Example 6, 3-O-phenylacetyl-4"-deoxydesmycosin] > 100 mg/L

Data request, read-out MIC, for CCC1OC(=O)CC(OC(=O)Cc2ccccc2)C(C)C(OC2OC(C)C(O)C(N(C)C)C2O)C(C)CC(C)C(=O)C=CC(C)=CC1COC1OC(C)CC(OC)C1OC (stereo not shown) [Example 10] > 100 mg/L

###

tested on: Micrococcus flavus ATCC 10240; assay: MIC (minimum inhibitory concentration); format: cell-based; settings: Micrococcus flavus, ATCC10240
Readout label: MIC

CC[C@H]1OC(=O)[C@H](C)[C@@H](O[C@H]2C[C@@](C)(OC)[C@@H](O)[C@H](C)O2)[C@H](C)[C@@H](O[C@@H]2O[C@H](C)C[C@H](N(C)C)[C@H]2O)[C@](C)(O)C[C@@H](C)C(=O)[C@H](C)[C@@H](O)[C@]1(C)O [Erythromycin, reference compound] = 0.1 µg/mL

Recall the recorded MIC for CC[C@H]1OC(=O)C[C@@H](O)[C@H](C)[C@@H](O[C@@H]2O[C@H](C)[C@@H](O[C@H]3C[C@@](C)(O)[C@@H](O)[C@H](C)O3)[C@H](N(C)C)[C@H]2O)[C@@H](CC=O)C[C@@H](C)C(=O)/C=C/C(C)=C/[C@@H]1CO[C@@H]1O[C@H](C)[C@@H](O)[C@@H](OC)[C@H]1OC [Tylosin, reference compound] with Micrococcus flavus ATCC 10240 and state it. ≤ 0.05 µg/mL

Recall the recorded MIC for CCC1OC(=O)CC(OC(=O)Cc2ccccc2)C(C)C(OC2OC(C)C(O)C(N(C)C)C2O)C(CC=O)CC(C)C(=O)C=CC(C)=CC1COC1OC(C)CC(OC)C1OC (stereo not drawn) [Example 6, 3-O-phenylacetyl-4"-deoxydesmycosin] with Micrococcus flavus ATCC 10240 and state it. ≤ 0.05 µg/mL

All values here come from patent US4652638A.
